# TESTED_ON: OX2R (Homo sapiens)
# Construct: expressed in transfected cells; host or cells: CHO (Chinese hamster ovary) cells constitutively expressing the OX2R gene and NFAT-luciferase (CHOOX2R)
# Sequence (O43614 whole entry): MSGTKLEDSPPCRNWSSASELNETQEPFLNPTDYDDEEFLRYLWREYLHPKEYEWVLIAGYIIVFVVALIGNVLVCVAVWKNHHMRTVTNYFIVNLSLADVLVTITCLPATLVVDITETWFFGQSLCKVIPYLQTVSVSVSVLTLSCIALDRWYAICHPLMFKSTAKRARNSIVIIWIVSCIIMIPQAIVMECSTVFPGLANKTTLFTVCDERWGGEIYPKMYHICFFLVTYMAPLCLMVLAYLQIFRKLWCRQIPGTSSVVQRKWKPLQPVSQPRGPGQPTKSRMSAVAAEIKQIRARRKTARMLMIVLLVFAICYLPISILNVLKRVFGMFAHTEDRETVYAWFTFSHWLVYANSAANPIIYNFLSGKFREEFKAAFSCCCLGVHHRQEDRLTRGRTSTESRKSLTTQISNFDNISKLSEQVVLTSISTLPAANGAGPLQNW
# ASSAY_REMARKS: Evaluation of agonist activity against OX2R (CHOOX2R cells, Fura2AM fluorescence, FDSS3000)
# Format: cell-based
# PARTICULARS: test compound 1.0 μM; CHOOX2R cells; relative to orexin-A as full agonist (100%)
Output schema: class label derived from Response (1.0 μM (%)). Mapping: low bin: < 70%; mid bin: ≥ 70% and < 90%; high bin: ≥ 90%

Bin? COc1ccccc1C(=O)NCCNc1cccc(NS(=O)(=O)c2cc(-c3ccccc3C(=O)N(C)C)ccc2OC)c1 [Example 79] low bin

# bin lookup: classify COc1ccc(-c2cccc(C(=O)N(C)C)c2)cc1S(=O)(=O)Nc1cccc(NCCNC(=O)c2ccccc2C)c1 [Example 65] by its Response (1.0 μM (%)) high bin

Hello team, could you let me know which band the following compound falls into: COc1ccccc1C(=O)NCCNc1cccc(NS(=O)(=O)c2cc(-c3cccc(N)c3)ccc2OC)c1 [Example 37] high bin

Each compound maps to one class by Response (1.0 μM (%)). Which class for COc1ccc(-c2cccc(C(=O)N(C)C)c2)cc1S(=O)(=O)Nc1cccc(NCCNC(=O)c2occc2C)c1 [Example 68] ? mid bin

State the band of COc1ccc(-c2cccc(C(=O)N(C)C)c2)cc1S(=O)(=O)Nc1cccc(NCCNC(=O)c2cccc(C#N)c2)c1 [Example 72] low bin

Bin? COc1ccc(-c2cccc(C(=O)N(C)C)c2)cc1S(=O)(=O)Nc1cccc(NCCNC(=O)c2nccn2C)c1 [Example 63] mid bin

Category of COc1ccc(-c2cccc(C(=O)N(C)C)c2)cc1S(=O)(=O)Nc1cccc(NCCNC(=O)c2c(F)cccc2OC)c1 [Example 70] : high bin
